Reported pIC50 values follow for various molecules
biological target: [Pyruvate dehydrogenase (acetyl-transferring)] kinase isozyme 2, mitochondrial (Homo sapiens, UniProt Q15119); test: Inhibition of human PDHK2 assessed as reduction in acetyl-coenzymeA formation by RapidFire mass spectrometry
pIC50 (log units): -log10 of the concentration in mol/L.

COC(=O)c1ccc(O)cc1O [METHYL 2,4-DIHYDROXYBENZOATE] :: 3.72
O=C1Cc2ccccc2N1 :: 3.02

# evaluate next
Ask: If you can, please state the reported pIC50 value of CC1(C)C(=O)Nc2ccccc21 .
Reply: 4.30

----------
Reported pIC50 values follow for various compounds
molecular target: [Pyruvate dehydrogenase (acetyl-transferring)] kinase isozyme 4, mitochondrial (Homo sapiens, UniProt Q16654); assay: Inhibition of human PDHK4 co-complexed with porcine PDH using sodium pyruvate, coenzymeA and NAD as substrate preincubated with enzyme complex for 45 mins followed by ATP addition and then later incubated with substrate for 90 mins by absorption spectrophotometric assay
Sequence (Q16654 whole entry): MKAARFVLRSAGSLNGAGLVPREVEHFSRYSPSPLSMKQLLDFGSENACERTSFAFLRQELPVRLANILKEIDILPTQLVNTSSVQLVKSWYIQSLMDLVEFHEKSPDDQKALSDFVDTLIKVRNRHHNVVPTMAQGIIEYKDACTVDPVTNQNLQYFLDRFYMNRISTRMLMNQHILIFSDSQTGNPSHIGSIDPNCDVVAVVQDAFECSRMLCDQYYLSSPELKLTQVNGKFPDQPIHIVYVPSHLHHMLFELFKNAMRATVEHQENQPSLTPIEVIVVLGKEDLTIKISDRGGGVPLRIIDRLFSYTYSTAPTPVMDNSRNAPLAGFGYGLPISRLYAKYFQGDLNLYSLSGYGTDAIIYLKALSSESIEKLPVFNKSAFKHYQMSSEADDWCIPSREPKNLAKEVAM
pIC50: −log10 of the molar value.

CCCc1[nH]c2nc(C)nc(Cl)c2c1C :: < 4.52
CC1(C)C(=O)Nc2ccccc21 :: < 3.52
CNC(=O)c1[nH]c2nc(C)nc(Cl)c2c1C :: < 4.00

# evaluate next
Ask: If you can, please state the reported pIC50 value of CCCc1[nH]c2nc(C)ncc2c1C#N .
Reply: < 4.52

Origin of values: ChEMBL document CHEMBL4823293
